Recorded measurements of Inhibition of PAD4: value at 40 µM inhibitor (0 µM: 71), one per entry
Target: recombinant human PAD4 (human, UniProt Q9UM07 1-663)
Sequence (Q9UM07 whole entry): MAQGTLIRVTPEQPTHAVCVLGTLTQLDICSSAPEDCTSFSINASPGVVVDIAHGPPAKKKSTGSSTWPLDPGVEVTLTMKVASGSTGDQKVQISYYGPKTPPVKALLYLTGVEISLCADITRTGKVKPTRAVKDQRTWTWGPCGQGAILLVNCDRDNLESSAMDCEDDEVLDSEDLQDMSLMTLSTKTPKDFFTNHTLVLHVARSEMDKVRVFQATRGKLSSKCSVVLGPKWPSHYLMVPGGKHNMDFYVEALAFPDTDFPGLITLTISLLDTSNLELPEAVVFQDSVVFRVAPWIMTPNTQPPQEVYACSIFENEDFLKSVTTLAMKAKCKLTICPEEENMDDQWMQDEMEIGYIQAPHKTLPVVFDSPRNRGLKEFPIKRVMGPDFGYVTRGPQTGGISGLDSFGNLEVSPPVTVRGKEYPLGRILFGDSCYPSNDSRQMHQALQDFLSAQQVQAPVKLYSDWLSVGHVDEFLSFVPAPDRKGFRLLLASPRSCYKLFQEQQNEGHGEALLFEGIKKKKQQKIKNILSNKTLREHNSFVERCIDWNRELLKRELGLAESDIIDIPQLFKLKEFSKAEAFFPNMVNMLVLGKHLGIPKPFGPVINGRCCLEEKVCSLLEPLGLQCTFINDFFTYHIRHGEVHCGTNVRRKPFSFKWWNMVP
Test: cell-based or functional assay
Square brackets hold non-standard residues; d marks the D form. * marks the point of attachment. Orn(fluoroacetimidoyl) = N=C(CF)NCCC[C@H](N)C(=O)O; 2Naphthylsulfonyl = O=S(=O)(c1ccc2ccccc2c1)*; AEEA = NCCOCCOCC(=O)O
assay-readout: Inhibition of PAD4: value at 40 µM inhibitor (0 µM: 71) (%)

binder: Ac-KFD[Orn(fluoroacetimidoyl)]DFI-NH2 (SMILES CC[C@H](C)[C@H](NC(=O)[C@H](Cc1ccccc1)NC(=O)[C@H](CC(=O)O)NC(=O)[C@H](CCCNC(=N)CF)NC(=O)[C@H](CC(=O)O)NC(=O)[C@H](Cc1ccccc1)NC(=O)[C@H](CCCCN)NC(C)=O)C(N)=O) [0743-58FA]
meas-value: 18

binder: Ac-KFD[Orn(fluoroacetimidoyl)]DFI[AEEA]-NH2 (SMILES CC[C@H](C)[C@H](NC(=O)[C@H](Cc1ccccc1)NC(=O)[C@H](CC(=O)O)NC(=O)[C@H](CCCNC(=N)CF)NC(=O)[C@H](CC(=O)O)NC(=O)[C@H](Cc1ccccc1)NC(=O)[C@H](CCCCN)NC(C)=O)C(=O)NCCOCCOCC(N)=O) [0837-13FA]
meas-value: 23

binder: 2Naphthylsulfonyl-KFD[Orn(fluoroacetimidoyl)]DFI-NH2 [0837-29FA]
meas-value: 10

binder: 2Naphthylsulfonyl-KFD[Orn(fluoroacetimidoyl)]DFI[AEEA]-NH2 (SMILES CC[C@H](C)[C@H](NC(=O)[C@H](Cc1ccccc1)NC(=O)[C@H](CC(=O)O)NC(=O)[C@H](CCCNC(=N)CF)NC(=O)[C@H](CC(=O)O)NC(=O)[C@H](Cc1ccccc1)NC(=O)[C@H](CCCCN)NS(=O)(=O)c1ccc2ccccc2c1)C(=O)NCCOCCOCC(N)=O) [0837-27FA]
meas-value: 12
